Reference source for all entries: paper PMC11730078

The following substances are listed with their measured Cholesterol micelle solubility inhibition rate values.
experiment: Inhibition of cholesterol micelle solubility in vitro; conditions: 1 mM peptide; micelles of 10 mM sodium taurocholate, 0.4 mM cholesterol, 1 mM oleic acid, pH 7.4; 37°C, 24 h; mean ± SD, three biological replicates; Figure 3C; SD
result.type: Cholesterol micelle solubility inhibition rate

substance=QDAVMPNPF reported_measurement="47.94% ± 0.58"
substance=LPAYPMP reported_measurement="41.55% ± 5.48"
substance=DYPRPW reported_measurement="37.29% ± 1.45"
substance=APDMAFPR reported_measurement="35.87% ± 2.56"
substance="SPADIGFH [abalone viscera peptide, top 20 after virtual screening, synthesized by GenScript]" reported_measurement="45.23% ± 3.68"

* * *

tested on: HMG-CoA reductase (HMGCR); experiment: HMG-CoA reductase inhibitory activity (HMG-CoA Reductase Assay Kit, Abcam ab204701); type: biochemical; conditions: 1 mM peptide, 0.5 mM Atorvastatin as positive control, OD340, 37°C, mean ± SD, three biological replicates, Figure 3B
The following substances are listed with their measured HMGCR inhibition rate values.
result.type: HMGCR inhibition rate

substance=DYPRPW reported_measurement="51.81% ± 0.70"
substance="SPADIGFH [abalone viscera peptide, top 20 after virtual screening, synthesized by GenScript]" reported_measurement="53.89% ± 3.89"
substance=LPAYPMP reported_measurement="54.65% ± 0.36"
substance=APDMAFPR reported_measurement="59.55% ± 0.46"
